FYI, the data here is from the NIST ThermoML archive (doi:10.1021/acs.jced.5b00242).

# assay remarks: refractive index (Na D-line) (dimensionless)
# condition notes: 353.15 K; 101 kPa; Liquid; Standard Abbe refractometry
Assign refractive index to each entry below.
Numbers only.

Name the recorded refractive index for CCn1cc[n+](C)c1.C[C@H](N)C(=O)[O-] [1-ethyl-3-methylimidazolium L-alaninate] . 1.49656

Can you check CCn1cc[n+](C)c1.O=C([O-])[C@@H]1CCCN1 [1-ethyl-3-methyl-1H-imidazolium L-prolinate] next? 1.5062

Continue with CCn1cc[n+](C)c1.N#C[C-](C#N)C#N [1-ethyl-3-methyl-1H-imidazolium tricyanomethanide] 1.49429

Request: CC[n+]1ccn(C)c1.N[C@@H](CO)C(=O)[O-] [3-ethyl-1-methyl-1H-imidazolium L-serinate] 1.51084

Now try CCn1cc[n+](C)c1.NCC(=O)[O-] [1-ethyl-3-methylimidazolium ammonioacetate] . 1.50495

Please turn your attention to the following entry.
Given CCn1cc[n+](C)c1.NCCS(=O)(=O)[O-] [1-ethyl-3-methylimidazolium taurinate] , state its recorded refractive index. 1.49726
